Biological target: T1, Human TNFR2-His (Sino 10417-H08H) (human, UniProt P20333 23-257)
T1 construct: Bought protein; also called recombinant human TNFR2 protein; not shown: His tag
T1 sequence (looked up): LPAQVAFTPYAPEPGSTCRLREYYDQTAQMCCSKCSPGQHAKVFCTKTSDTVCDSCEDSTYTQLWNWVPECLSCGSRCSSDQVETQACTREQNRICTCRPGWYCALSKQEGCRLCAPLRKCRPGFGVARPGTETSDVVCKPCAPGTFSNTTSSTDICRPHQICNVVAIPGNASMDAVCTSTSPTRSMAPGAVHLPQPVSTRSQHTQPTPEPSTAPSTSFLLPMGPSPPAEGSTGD
Experiment: SPR (Biacore T200), antibody captured on Protein A chip
Kd: recorded values
Hi! Could you send only the number? It should be in nM, unit omitted.

Known results for binders:
219-Hu3 (antibody, V domains shown, also called VH5 + VL5) VH: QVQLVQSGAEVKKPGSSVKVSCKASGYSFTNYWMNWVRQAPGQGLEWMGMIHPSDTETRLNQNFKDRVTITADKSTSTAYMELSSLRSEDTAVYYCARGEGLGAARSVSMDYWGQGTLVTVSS VL: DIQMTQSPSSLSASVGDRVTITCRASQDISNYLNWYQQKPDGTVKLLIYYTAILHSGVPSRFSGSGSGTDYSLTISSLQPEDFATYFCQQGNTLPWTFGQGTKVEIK ... 0.362
224-Hu2 (antibody, V domains shown, Humanized form of #224; also called VH9 + VL7) VH: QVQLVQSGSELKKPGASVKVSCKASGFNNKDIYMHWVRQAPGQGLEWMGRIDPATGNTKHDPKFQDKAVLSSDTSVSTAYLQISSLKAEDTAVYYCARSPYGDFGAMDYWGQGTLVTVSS VL: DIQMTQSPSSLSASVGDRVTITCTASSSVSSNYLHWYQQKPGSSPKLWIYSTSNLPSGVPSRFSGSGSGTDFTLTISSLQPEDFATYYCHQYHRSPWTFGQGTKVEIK ... 4.31
219-Hu2 (antibody, V domains shown, also called VH4 + VL5) VH: QVQLVQSGAEVKKPGSSVKVSCKASGYSFTNYWMNWVRQAPGQGLEWMGMIHPSDTETRLNQNFKDKATITADKSTSTAYMELSSLRSEDTAVYYCARGEGLGAARSVSMDYWGQGTLVTVSS VL: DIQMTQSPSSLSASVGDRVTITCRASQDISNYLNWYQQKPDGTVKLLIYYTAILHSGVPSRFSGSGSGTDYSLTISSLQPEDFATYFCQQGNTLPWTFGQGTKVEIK ... 0.34
224-Hu6 (antibody, V domains shown, Humanized form of #224; also called VH8 + VL7) VH: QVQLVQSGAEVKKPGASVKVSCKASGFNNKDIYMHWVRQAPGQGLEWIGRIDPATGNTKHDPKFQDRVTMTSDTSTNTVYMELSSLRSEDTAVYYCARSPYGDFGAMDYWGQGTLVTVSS VL: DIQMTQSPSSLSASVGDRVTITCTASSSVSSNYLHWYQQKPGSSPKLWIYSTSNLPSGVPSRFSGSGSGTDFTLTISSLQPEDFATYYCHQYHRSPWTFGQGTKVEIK ... 4.08

The measured Kd associated with 001-Hu2 (antibody, V domains shown, Humanized form of #001; also called VH2 + VL2) VH: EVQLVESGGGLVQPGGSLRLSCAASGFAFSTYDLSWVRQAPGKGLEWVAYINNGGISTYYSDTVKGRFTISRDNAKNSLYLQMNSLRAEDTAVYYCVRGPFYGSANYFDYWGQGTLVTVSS VL: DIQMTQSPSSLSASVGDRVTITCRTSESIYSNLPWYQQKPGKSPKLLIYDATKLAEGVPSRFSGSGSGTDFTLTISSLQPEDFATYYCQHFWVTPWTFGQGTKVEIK reads 0.496
